# EXPERIMENTAL TARGET: human galectin-1 (Gal-1, full length) (Homo sapiens, UniProt P09382)
# Construct: Gal-1 is a prototype galectin consisting of a single CRD and was used in full length; 6xHis tag with TEV protease site (N, cleaved yes); made in house; host or cells: BL21 Escherichia coli (pET-15b)
# Sequence (P09382 2-135): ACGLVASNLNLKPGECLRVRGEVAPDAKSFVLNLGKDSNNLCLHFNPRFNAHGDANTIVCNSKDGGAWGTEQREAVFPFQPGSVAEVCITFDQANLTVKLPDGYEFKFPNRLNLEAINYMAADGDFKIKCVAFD
# PROTOCOL: Competitive fluorescence polarization assay, Gal-1
# Assay type: binding
# TEST PARAMETERS: four-parameter logistic model; mean ± SD; read-out: IC50 Gal-1
pIC50: −log10 of the molar value.
ASSAY READOUT: pIC50

[
  {
    "COMPOUND": "CC(=O)N(c1ccc2c(c1)OCO2)[C@@H]1O[C@H](CO)[C@@H](O[C@@H]2O[C@H](CO)[C@H](O)[C@H](O)[C@H]2O)[C@H](O)[C@H]1O",
    "pIC50": 3.01
  },
  {
    "COMPOUND": "CC(=O)N(c1cccc(F)c1)[C@@H]1O[C@H](CO)[C@@H](O[C@@H]2O[C@H](CO)[C@H](O)[C@H](O)[C@H]2O)[C@H](O)[C@H]1O",
    "pIC50": 3.17
  },
  {
    "COMPOUND": "CC(=O)N(c1cc(O)cc(C(=O)O)c1)[C@@H]1O[C@H](CO)[C@@H](O[C@@H]2O[C@H](CO)[C@H](O)[C@H](O)[C@H]2O)[C@H](O)[C@H]1O",
    "pIC50": 2.92
  }
]

[I] CC(=O)N(c1cccc(C(=O)O)c1)[C@@H]1O[C@H](CO)[C@@H](O[C@@H]2O[C@H](CO)[C@H](O)[C@H](O)[C@H]2O)[C@H](O)[C@H]1O
[II] CC(=O)N(c1ccc(I)cc1)[C@@H]1O[C@H](CO)[C@@H](O[C@@H]2O[C@H](CO)[C@H](O)[C@H](O)[C@H]2O)[C@H](O)[C@H]1O
Compare reported pIC50 values for I and II . Which is lower? Return value: the label identifying the chosen record.
I

These entries and their values trace back to paper PMC12670426.
